Tested on: tetA promoter (PtetA)-lacZ reporter in E. coli KM3
Assay type: cell-based
test-context: Table 10; metsulfuron 2 ppm; 48 hours at 30° C.
observable: relative β-galactosidase activity, inducer Ms

Supply recorded relative β-galactosidase activity, inducer Ms for L1-22: library L1 hit, sulfonylurea-responsive TetR(B) variant, SEQ ID NO: 7 (protein, Sulfornylurea responsive repressor L1-22) MGSRLDKSKVINSALELLNEVGIEGLTTRKLAQKLGVEQPTLYWHVKNKRALLDALAIEMMDRHHTHFCPLEGESWQDFLRNTAKSYRCALLSHRDGAKVCLGTAITEKQYETKENNLAFLCQQGFSLENALYARQAVRVFTLGCVLFDQEMQVAKEERETPTTDSMPPLLRQASELLDHQGAEPAFLFGLELIICGLEKQLKSESGS here. 0.2
